# Observed Efficacy (%) per entry
System: Alternaria solani
Assay: Alternaria solani test in tomato (preventive, glasshouse)
Format: in vivo
Conditions: single compound, 0.05 ppm, preventive
The reply should be a number in %, with the unit left off.

Previously resolved entries follow.
{"columns": ["molecule", "Observed Efficacy (%)"],
 "data": [
  ["O=C(NCCc1ncc(C(F)(F)F)cc1Cl)c1ccccc1C(F)(F)F", 26],
  ["O=C1c2ccccc2C(=O)N1SC(Cl)(Cl)Cl", 12],
  ["CC(C)(C)C(O)(CCc1ccc(Cl)cc1)Cn1cncn1 (stereo not shown)", 34]
]}

Could you now consider this next molecule?
Lab note: need Observed Efficacy (%) with Alternaria solani for entry CO/C=C(/C(=O)OC)c1ccccc1COc1cccc(C(F)(F)F)n1 , please look it up.
23
